Let's go through some AC50 measurements on D(3) dopamine receptor (Homo sapiens) together.
Sequence (P35462 whole entry): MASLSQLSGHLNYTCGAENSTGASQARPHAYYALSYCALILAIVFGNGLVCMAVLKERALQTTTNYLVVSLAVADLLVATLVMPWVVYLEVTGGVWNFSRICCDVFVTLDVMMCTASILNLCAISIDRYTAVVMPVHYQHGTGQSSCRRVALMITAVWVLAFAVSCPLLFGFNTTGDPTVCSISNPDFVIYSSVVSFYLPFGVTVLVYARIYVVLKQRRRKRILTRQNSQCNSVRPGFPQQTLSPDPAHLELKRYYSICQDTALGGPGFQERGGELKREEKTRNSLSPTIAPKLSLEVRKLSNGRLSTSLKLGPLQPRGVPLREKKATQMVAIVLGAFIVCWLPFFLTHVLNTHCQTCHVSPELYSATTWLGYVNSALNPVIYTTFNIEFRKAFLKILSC
endpoint_label: AC50

1) CCCCCCCC(=O)CC[C@@H]1[C@@H](C/C=C\CCCC(=O)OC(C)C)[C@@H](O)C[C@H]1O = > 30 µM
2) C[C@@H]1C[C@H]2[C@@H]3C[C@H](F)C4=CC(=O)C=C[C@]4(C)[C@@]3(F)[C@@H](O)C[C@]2(C)[C@@]1(OC(=O)c1ccco1)C(=O)SCF [FLUTICASONE FUROATE] = > 30 µM
3) COc1ccc(CN2CCN(C(c3ccc(F)cc3)c3ccc(F)cc3)CC2)c(OC)c1OC = 2.2 µM

====

AC50 for assorted molecules
target_entity: Prostaglandin G/H synthase 1 (Rattus norvegicus); also: assay procedure not described here
Sequence (Q63921 whole entry): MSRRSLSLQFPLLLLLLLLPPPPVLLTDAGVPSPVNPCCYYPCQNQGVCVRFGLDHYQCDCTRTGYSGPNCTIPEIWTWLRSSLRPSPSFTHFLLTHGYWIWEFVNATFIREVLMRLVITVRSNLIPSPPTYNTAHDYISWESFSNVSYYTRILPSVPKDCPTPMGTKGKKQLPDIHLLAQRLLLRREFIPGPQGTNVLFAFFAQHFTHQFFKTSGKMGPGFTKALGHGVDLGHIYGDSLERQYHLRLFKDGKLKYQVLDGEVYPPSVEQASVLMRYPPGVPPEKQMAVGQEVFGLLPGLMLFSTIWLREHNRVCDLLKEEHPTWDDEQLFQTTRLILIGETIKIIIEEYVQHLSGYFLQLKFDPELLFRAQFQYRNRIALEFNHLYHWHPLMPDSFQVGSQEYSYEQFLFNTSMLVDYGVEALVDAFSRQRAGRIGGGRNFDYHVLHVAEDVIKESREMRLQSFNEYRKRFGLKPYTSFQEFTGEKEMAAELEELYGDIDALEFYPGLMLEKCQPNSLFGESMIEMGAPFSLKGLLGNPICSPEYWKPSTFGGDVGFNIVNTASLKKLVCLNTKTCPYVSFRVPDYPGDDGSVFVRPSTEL
Type: functional
endpoint_label: AC50

1) CC(O)(CS(=O)(=O)c1ccc(F)cc1)C(=O)Nc1ccc(C#N)c(C(F)(F)F)c1 (centres undefined) [BICALUTAMIDE] = > 30 µM
2) CC(=O)O[C@]1(C(C)=O)CC[C@H]2[C@@H]3C=C(Cl)C4=CC(=O)[C@@H]5C[C@@H]5[C@]4(C)[C@H]3CC[C@@]21C [CYPROTERONE ACETATE] = > 30 µM
3) CN(CCOc1ccc(CC2SC(=O)NC2=O)cc1)c1ccccn1 (centres undefined) [ROSIGLITAZONE] = > 30 µM
4) CCOC(=O)c1ncn2c1CN(C)C(=O)c1cc(F)ccc1-2 [FLUMAZENIL] = > 30 µM

====

Parameter 'readout' = AC50; parameter 'system' = Glucocorticoid receptor (Homo sapiens). Also: assay procedure not described here.
Sequence (P04150 whole entry): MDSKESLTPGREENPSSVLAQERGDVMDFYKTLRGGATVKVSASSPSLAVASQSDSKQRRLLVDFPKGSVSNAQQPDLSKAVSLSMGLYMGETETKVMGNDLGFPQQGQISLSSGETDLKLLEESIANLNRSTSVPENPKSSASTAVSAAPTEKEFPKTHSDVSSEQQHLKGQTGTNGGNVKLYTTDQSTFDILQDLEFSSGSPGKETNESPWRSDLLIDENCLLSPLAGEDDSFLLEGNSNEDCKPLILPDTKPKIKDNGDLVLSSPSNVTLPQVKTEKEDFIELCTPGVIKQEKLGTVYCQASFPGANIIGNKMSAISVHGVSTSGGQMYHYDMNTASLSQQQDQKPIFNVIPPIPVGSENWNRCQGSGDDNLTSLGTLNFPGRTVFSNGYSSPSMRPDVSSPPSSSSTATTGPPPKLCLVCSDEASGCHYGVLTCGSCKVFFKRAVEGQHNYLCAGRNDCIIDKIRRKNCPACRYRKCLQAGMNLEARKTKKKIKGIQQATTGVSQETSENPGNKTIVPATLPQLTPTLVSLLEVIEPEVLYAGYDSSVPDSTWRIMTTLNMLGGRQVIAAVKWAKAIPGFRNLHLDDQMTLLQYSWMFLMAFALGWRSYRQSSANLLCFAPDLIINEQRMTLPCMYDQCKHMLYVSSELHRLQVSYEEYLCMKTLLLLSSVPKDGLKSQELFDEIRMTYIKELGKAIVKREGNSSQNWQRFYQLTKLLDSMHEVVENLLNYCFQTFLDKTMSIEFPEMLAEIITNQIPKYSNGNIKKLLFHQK
endpoint_label: AC50

1) CCOC(=O)c1ccc(N)cc1 [BENZOCAINE] = > 10 µM
2) CN(C)C/C=C/C(=O)Nc1cc2c(Nc3ccc(F)c(Cl)c3)ncnc2cc1O[C@H]1CCOC1 [AFATINIB] = > 30 µM
3) CN(C)Cc1nnc2n1-c1ccc(Cl)cc1C(c1ccccc1)=NC2 [ADINAZOLAM] = > 10 µM
4) O=C(NCCO[N+](=O)[O-])c1cccnc1 [NICORANDIL] = > 30 µM
5) COC(=O)[C@H]1[C@H]2C[C@@H]3c4[nH]c5cc(OC)ccc5c4CCN3C[C@H]2C[C@@H](OC(=O)c2cc(OC)c(OC)c(OC)c2)[C@@H]1OC [RESERPINE] = > 10 µM
6) CCc1cc2c(s1)-n1c(C)nnc1CN=C2c1ccccc1Cl [ETIZOLAM] = > 30 µM
7) CCC1(c2ccc(N)cc2)CCC(=O)NC1=O (centres undefined) [AMINOGLUTETHIMIDE] = > 30 µM
8) CC1=C(C(=O)OC(C)C)C(c2cccc([N+](=O)[O-])c2)C(C(=O)OC2CN(C(c3ccccc3)c3ccccc3)C2)=C(N)N1 (centres undefined) [AZELNIDIPINE] = > 30 µM
9) NS(=O)(=O)c1cc2c(cc1Cl)N=C(CSCc1ccccc1)NS2(=O)=O [BENZTHIAZIDE] = > 30 µM

====

# Gamma-aminobutyric acid receptor subunit alpha-1 (Rattus norvegicus, UniProt P62813): AC50 values follow; also: assay procedure not described here
# Sequence (P62813 whole entry): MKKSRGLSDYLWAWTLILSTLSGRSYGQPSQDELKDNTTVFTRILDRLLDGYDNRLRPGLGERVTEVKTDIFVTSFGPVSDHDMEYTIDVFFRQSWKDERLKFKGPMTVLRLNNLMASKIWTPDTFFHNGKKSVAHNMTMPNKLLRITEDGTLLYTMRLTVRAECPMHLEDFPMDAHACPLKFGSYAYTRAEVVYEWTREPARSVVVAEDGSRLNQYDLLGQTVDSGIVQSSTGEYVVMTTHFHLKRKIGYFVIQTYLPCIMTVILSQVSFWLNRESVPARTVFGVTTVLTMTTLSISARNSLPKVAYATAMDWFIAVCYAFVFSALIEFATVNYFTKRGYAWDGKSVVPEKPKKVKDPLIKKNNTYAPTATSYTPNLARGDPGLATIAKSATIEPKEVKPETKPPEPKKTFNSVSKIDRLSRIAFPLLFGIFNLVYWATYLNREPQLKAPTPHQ
endpoint_label: AC50

1. COc1c2occc2c(OC)c2c(=O)cc(C)oc12 = > 30 µM
2. C#C[C@]1(O)C=C[C@H]2[C@@H]3CCC4=CC(=O)CC[C@@H]4[C@H]3CC[C@@]21CC = 2.16 µM
3. CC(C)NC(=N)NC(=N)Nc1ccc(Cl)c(Cl)c1 = > 30 µM
4. COc1cc(C(C)=O)ccc1OCCCN1CCC(c2noc3cc(F)ccc23)CC1 = > 30 µM
5. O=C1Cc2cc(CCN3CCN(c4nsc5ccccc45)CC3)c(Cl)cc2N1 = > 30 µM

====

Here the recorded AC50 is given for each entry.
target_entity: Progesterone receptor (Homo sapiens, UniProt P06401); also: assay procedure not described here
Sequence (P06401 whole entry): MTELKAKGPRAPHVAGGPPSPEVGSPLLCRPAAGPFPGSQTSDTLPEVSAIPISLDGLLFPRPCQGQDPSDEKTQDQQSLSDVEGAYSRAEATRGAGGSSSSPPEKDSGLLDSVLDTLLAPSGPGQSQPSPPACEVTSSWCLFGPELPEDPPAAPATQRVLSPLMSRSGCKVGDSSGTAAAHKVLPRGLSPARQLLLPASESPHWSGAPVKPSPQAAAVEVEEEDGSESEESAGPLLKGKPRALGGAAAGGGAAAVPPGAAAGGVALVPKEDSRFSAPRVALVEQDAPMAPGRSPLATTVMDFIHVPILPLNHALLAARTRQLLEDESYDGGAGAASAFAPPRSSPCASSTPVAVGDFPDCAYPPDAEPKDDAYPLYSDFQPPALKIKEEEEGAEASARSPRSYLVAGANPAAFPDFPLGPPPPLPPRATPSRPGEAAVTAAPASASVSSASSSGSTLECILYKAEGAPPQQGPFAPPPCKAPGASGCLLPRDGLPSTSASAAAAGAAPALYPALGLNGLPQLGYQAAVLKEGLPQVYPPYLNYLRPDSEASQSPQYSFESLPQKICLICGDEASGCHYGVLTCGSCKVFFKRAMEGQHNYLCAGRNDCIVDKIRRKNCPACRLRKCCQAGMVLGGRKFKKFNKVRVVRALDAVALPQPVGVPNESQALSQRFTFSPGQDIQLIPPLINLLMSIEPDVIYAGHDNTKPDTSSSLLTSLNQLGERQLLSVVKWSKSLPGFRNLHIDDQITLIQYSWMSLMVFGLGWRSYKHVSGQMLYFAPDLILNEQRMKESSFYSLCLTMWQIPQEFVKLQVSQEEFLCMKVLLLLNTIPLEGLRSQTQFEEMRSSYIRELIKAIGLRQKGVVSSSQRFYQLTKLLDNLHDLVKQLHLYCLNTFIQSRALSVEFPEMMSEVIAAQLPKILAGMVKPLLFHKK
Type: functional
endpoint_label: AC50

1) CCCN1CC(NS(=O)(=O)N(CC)CC)CC2Cc3c(O)cccc3CC21 (centres undefined) [QUINAGOLIDE] = > 30 µM
2) CC(O)(CS(=O)(=O)c1ccc(F)cc1)C(=O)Nc1ccc(C#N)c(C(F)(F)F)c1 (centres undefined) [BICALUTAMIDE] = > 30 µM
3) C[N+]12CCC(CC1)C(OC(=O)C(O)(c1ccccc1)c1ccccc1)C2 (centres undefined) = > 30 µM
4) CCCCCCCC(=O)CC[C@@H]1[C@@H](C/C=C\CCCC(=O)OC(C)C)[C@@H](O)C[C@H]1O = 21 µM

====

target_entity: Beta-2 adrenergic receptor (Homo sapiens); also: assay procedure not described here
Sequence (P07550 whole entry): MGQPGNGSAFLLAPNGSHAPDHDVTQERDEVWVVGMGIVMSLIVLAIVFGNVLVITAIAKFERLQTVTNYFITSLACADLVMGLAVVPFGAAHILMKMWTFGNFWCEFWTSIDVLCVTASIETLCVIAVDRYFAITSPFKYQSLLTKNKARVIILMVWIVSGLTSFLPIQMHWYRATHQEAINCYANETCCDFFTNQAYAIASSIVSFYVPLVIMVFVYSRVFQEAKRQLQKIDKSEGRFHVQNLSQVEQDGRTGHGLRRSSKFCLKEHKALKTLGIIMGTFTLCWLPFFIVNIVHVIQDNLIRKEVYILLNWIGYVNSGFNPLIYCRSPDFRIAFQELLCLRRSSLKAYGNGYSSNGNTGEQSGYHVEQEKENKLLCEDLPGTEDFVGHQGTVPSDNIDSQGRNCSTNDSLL
Type: functional, cell-based
AC50 values for the molecules below.
endpoint_label: AC50

1. NC[C@H]1CC[C@H](C(=O)Oc2ccc(CCC(=O)O)cc2)CC1 [CETRAXATE] = > 30 µM
2. CN1Cc2c(N)cccc2C(c2ccccc2)C1 (stereo unspecified) = > 30 µM
3. CN(Cc1cnc2nc(N)nc(N)c2n1)c1ccc(C(=O)N[C@@H](CCC(=O)O)C(=O)O)cc1 [METHOTREXATE] = > 30 µM
4. CC(C)Cc1ccc([C@H](C)C(=O)O)cc1 = > 30 µM
5. CO[C@H]1C[C@H](O[C@H]2CC[C@@]3(C)[C@H](CC[C@@H]4[C@@H]3CC[C@]3(C)[C@@H](C5=CC(=O)OC5)[C@@H](OC(C)=O)C[C@]43O)C2)O[C@@H](C)[C@@H]1O = > 30 µM
6. c1ccc(C2(N3CCCCC3)CCCCC2)cc1 = > 30 µM
7. CNCCc1ccc(OC(=O)C(C)C)c(OC(=O)C(C)C)c1 = 9.93 µM
8. CCC[C@@H]1C[C@@H](C(=O)N[C@@H]([C@H]2O[C@H](SC)[C@H](O)[C@@H](O)[C@H]2O)[C@@H](C)O)N(C)C1 = > 30 µM
9. CCCN1CC(NS(=O)(=O)N(CC)CC)CC2Cc3c(O)cccc3CC21 (stereo unspecified) [QUINAGOLIDE] = > 30 µM
10. CCC(=O)O[C@]1(C(=O)CCl)[C@@H](C)C[C@H]2[C@@H]3CCC4=CC(=O)C=C[C@]4(C)[C@@]3(F)[C@@H](O)C[C@@]21C [CLOBETASOL PROPIONATE] = > 30 µM
11. C[C@]12C/C(=C/O)C(=O)C[C@@H]1CC[C@@H]1[C@@H]2CC[C@@]2(C)[C@H]1CC[C@]2(C)O = > 30 µM
12. Cc1cc(=O)n(-c2ccccc2)n1C [ANTIPYRINE] = > 30 µM
13. O=C1Cc2cc(CCN3CCN(c4nsc5ccccc45)CC3)c(Cl)cc2N1 = > 30 µM
14. C=CCN1CCc2nc(N)sc2CC1 [TALIPEXOLE] = > 30 µM
15. CCCCOc1ccc(C(=O)CCN2CCCCC2)cc1 = > 30 µM
16. COC(=O)C1=C(C)NC(C)=C(C(=O)OCCN2CCN(C(c3ccccc3)c3ccccc3)CC2)C1c1cccc([N+](=O)[O-])c1 (stereo unspecified) = > 30 µM

====

Record: AC50 reported on Cannabinoid receptor 1 (Homo sapiens, UniProt P21554).
Sequence (P21554 whole entry): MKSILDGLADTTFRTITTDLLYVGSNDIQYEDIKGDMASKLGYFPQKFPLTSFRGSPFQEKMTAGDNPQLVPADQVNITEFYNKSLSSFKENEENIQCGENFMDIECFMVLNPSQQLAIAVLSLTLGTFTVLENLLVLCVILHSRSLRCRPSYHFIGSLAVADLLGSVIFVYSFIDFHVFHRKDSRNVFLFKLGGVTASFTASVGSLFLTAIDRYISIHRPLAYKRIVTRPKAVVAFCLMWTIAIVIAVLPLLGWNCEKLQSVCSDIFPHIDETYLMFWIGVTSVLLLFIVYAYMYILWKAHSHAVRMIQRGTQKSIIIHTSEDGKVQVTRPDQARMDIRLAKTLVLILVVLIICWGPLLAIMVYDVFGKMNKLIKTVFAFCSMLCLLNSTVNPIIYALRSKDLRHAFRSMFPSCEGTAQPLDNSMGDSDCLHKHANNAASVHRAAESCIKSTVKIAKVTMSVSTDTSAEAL
endpoint_label: AC50

1. O=C(O)Cc1ccccc1Nc1c(Cl)cccc1Cl [DICLOFENAC] = > 10 µM
2. CNC(=C[N+](=O)[O-])NCCSCc1csc(CN(C)C)n1 [NIZATIDINE] = > 10 µM
3. CN[C@]1(c2ccccc2Cl)CCCCC1=O [ESKETAMINE] = > 30 µM
4. Clc1ccc(CCC(Cn2ccnc2)Sc2c(Cl)cccc2Cl)cc1 (centres undefined) [BUTOCONAZOLE] = > 30 µM
5. CC(CN(C)C)C(C)(O)Cc1ccc(Cl)cc1 (centres undefined) [CLOBUTINOL] = > 10 µM
6. O=C(c1cc(Cc2n[nH]c(=O)c3ccccc23)ccc1F)N1CCN(C(=O)C2CC2)CC1 [OLAPARIB] = > 10 µM
7. CCCNC(=O)NS(=O)(=O)c1ccc(Cl)cc1 [CHLORPROPAMIDE] = > 10 µM
8. O=C(O)c1ccc(NC(=O)[C@H](Cc2ccc(O)cc2)NC(=O)c2ccccc2)cc1 [BENTIROMIDE] = > 10 µM
9. CN(CCOc1ccc(CC2SC(=O)NC2=O)cc1)c1ccccn1 (centres undefined) [ROSIGLITAZONE] = 16 µM
10. O=C(O)COCCN1CCN(C(c2ccccc2)c2ccc(Cl)cc2)CC1 (centres undefined) [CETIRIZINE] = > 10 µM
11. CN(C)Cc1nnc2n1-c1ccc(Cl)cc1C(c1ccccc1)=NC2 [ADINAZOLAM] = > 10 µM
12. C[C@]12C=CC(=O)C=C1CC[C@@H]1[C@@H]2CC[C@]2(C)OC(=O)CC[C@@H]12 [TESTOLACTONE] = > 10 µM
13. CCCCOc1ccc(C(=O)CCN2CCCCC2)cc1 [DYCLONINE] = > 10 µM
14. O=C(O)CCNC(=O)c1ccc(/N=N/c2ccc(O)c(C(=O)O)c2)cc1 [BALSALAZIDE] = > 30 µM
15. CCC1(CCC(C)C)C(=O)NC(=O)NC1=O [AMOBARBITAL] = > 10 µM
16. C[N+]1(C)CCC(=C(c2ccccc2)c2ccccc2)CC1 = > 10 µM
17. CC(=O)O[C@]1(C(C)=O)CC[C@H]2[C@@H]3C=C(Cl)C4=CC(=O)[C@@H]5C[C@@H]5[C@]4(C)[C@H]3CC[C@@]21C [CYPROTERONE ACETATE] = > 10 µM
18. NNC(=O)c1ccncc1 [ISONIAZID] = > 30 µM
19. CCC(=O)O[C@](Cc1ccccc1)(c1ccccc1)[C@H](C)CN(C)C [PROPOXYPHENE] = > 10 µM
